- Test system: MS2 coat protein
- experiment-description: apparent KD of MS2 coat protein; designed switch direction (-1 OFF switch, 1 ON switch): -1; higher = weaker reporter binding
- condition-context: input ligand: none
The label depends only on apparent KD of MS2 coat protein: T if it is at least 30 nM, F if it is smaller.

Would you please look over these solved cases?
sequence: GUCAUGUCAGGAUAUGCUUAUGAUGGGUGCUCAGACAUGAUGCAGAAGGGACAUGAGGAUCACCCAUGUACUGA [EX4 #15] (Eterna round: R97, puzzle: Exclusion 4)
category: T

sequence: GCUUGAGCUGUGAGGAUAUUUCGAGUGAAAGCUUGAGAGAAGGCACAUGAGGAUCACCCAUGUAAGGUUCGAGU [-26, -23.9 kcal, A 28%, 1bis-1bis] (Eterna round: R97, puzzle: Brourd's mod of Exclusion 4)
category: F

sequence: CCAUGUCCAGAGGAUAUGUAGCGGAUAAACGCAACAGAAGGCUGGACAUGAGGAUCACCCAUGUGCGCCUUCCA [Letion] (Eterna round: R97, puzzle: Exclusion 6)
category: T

sequence: UCUUAGUCAGGAUAUACAUGAGGAUCACCCAUGUAAAAUUUUAAUUUAAUUUUAAGGUGUAGAAGGGACCACUU [Ex3 #19] (Eterna round: R97, puzzle: Exclusion 3)
category: F

**Q:** Exam item: decide whether the reported apparent KD of MS2 coat protein for UUAAUUAAUUAAUUAGAUCCUCACAUGAGGAUCACCCAUGUGCAGGAUAUCAGCUCGAUUAGAGCUGAGAAGGGCACUAUUAAU [ExNG3/10-B4] (Eterna round: R96, puzzle: Exclusion NG 3) is at least 30 nM.
**A:** T

**Q:** Exam item: decide whether the reported apparent KD of MS2 coat protein for CCCUUUCAGGCAGGAUAUGUUCAUUUGUGAAUGGUGCCUACCUCACAUGAGGAUCACCCAUGUGGACAGAAGGGCCGGUGAAAA [Eternabot solution 26] (Eterna round: R96, puzzle: Exclusion NG 2) is at least 30 nM.
**A:** F

**Q:** Exam item: decide whether the reported apparent KD of MS2 coat protein for GAUCAUGCAGGAUAUGCAGUAACCAUGAAAACAUGGUUGCAACAUGAGGAUCACCCAUGUAGAAGGGCAUGAUC [Omei Ex2 A3] (Eterna round: R97, puzzle: Exclusion 2) is at least 30 nM.
**A:** F

**Q:** Exam item: decide whether the reported apparent KD of MS2 coat protein for AAUACAAGCUAUUGAUCCCACAUGAGGAUCACCCAUGUAGCUGGCCGUGAGACCAGCUUUACAAUAGCUCGUCUUAU [Sensor-V1 #49] (Eterna round: R97, puzzle: Sensor, turn-off variant 1) is at least 30 nM.
**A:** T

**Q:** Exam item: decide whether the reported apparent KD of MS2 coat protein for GCUGGUCGAGGAUAUACAUGAGGAUCACCCAUGUGGUUACGUGACGAUAGUCACGAAUGUAGAAGGCGACCAGC [E3/4-A1] (Eterna round: R97, puzzle: Exclusion 3) is at least 30 nM.
**A:** T

**Q:** Exam item: decide whether the reported apparent KD of MS2 coat protein for GCGGACAAGAUAUAAAUAUCAGAGACAUGAGGAUCACCCAUGUAGGAUAUCGAUUCGAAACGAAUCGAGAAGGGCAUAGUCCGC [JL denovo 1] (Eterna round: R96, puzzle: Exclusion NG 3) is at least 30 nM.
**A:** F
